# System tested: Androgen receptor (Rattus norvegicus)
# Sequence (P15207 whole entry S389L): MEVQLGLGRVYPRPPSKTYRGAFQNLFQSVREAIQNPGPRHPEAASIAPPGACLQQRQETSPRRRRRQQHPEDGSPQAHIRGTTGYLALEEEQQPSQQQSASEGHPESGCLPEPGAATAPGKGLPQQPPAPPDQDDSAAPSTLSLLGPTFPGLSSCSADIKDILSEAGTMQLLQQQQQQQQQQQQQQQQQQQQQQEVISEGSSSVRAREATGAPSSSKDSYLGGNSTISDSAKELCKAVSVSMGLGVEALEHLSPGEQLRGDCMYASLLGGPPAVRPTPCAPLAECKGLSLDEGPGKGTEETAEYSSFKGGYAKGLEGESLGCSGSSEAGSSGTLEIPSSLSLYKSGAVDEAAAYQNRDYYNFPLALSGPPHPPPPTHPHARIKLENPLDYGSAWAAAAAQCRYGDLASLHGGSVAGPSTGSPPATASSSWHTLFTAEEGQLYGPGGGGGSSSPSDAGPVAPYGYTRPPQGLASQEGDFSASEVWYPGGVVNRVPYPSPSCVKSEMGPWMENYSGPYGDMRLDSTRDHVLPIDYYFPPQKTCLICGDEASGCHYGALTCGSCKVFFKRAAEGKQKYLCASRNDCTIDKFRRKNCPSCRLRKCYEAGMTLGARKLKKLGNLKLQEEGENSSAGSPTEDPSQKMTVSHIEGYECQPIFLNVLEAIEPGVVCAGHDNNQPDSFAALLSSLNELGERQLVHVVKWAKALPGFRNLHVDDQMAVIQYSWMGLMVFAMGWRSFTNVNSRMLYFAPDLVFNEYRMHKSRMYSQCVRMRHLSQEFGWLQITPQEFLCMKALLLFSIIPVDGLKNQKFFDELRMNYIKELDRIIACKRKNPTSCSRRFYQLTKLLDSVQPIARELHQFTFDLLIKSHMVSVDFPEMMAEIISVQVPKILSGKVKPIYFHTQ
# Test description: In vitro antagonist activity against rat prostatic androgen receptor (AR)
pIC50: −log10 of the molar value.
Quick rule: pIC50 of at least 7 means Criterion met, below that means Criterion not met.

Compound: CCN(CC)C(=O)[C@H]1CC[C@H]2[C@@H]3CCC4N(C)C(=O)C=C(C#N)[C@]4(C)[C@H]3CC[C@]12C (some centres undefined)
Category: Criterion not met
//
Compound: CCNC(=O)[C@H]1CC[C@H]2[C@@H]3CC[C@H]4NC(=O)C=C[C@]4(C)[C@H]3CC[C@]12C
Category: Criterion not met
//
Compound: COC(CNC(=O)[C@H]1CC[C@H]2[C@@H]3CCC4N(C)C(=O)CC[C@]4(C)[C@H]3CC[C@]12C)OC (some centres undefined)
Category: Criterion not met
//
Compound: CCNC(=O)[C@H]1CC[C@H]2[C@@H]3CCC4N(C)C(=O)CC[C@]4(C)[C@H]3CC[C@]12C (some centres undefined)
Category: Criterion not met
//
Compound: CN1C(=O)C=C[C@]2(C)[C@H]3CC[C@]4(C)[C@@H](O)CC[C@H]4[C@@H]3CC[C@@H]12
Category: Criterion met
//
Compound: CN1C(=O)C=C[C@@]2(C)C1CC[C@H]1[C@@H]3CC[C@H](C(=O)c4ccc[nH]4)[C@@]3(C)CC[C@@H]12 (some centres undefined)
Category: Criterion met
//
Compound: COC(=O)[C@H]1CC[C@H]2[C@@H]3CC[C@H]4N(C)C(=O)C=C[C@]4(C)[C@H]3CC[C@]12C
Category: Criterion met
//
Compound: CC(O)[C@H]1[C@H](C)C[C@H]2[C@@H]3CCC4N(C)C(=O)CC[C@]4(C)[C@H]3CC[C@@]21C (some centres undefined)
Category: Criterion not met

// inclusive: pIC50 at least 7? input: C[C@]12C=CC(=O)N[C@@H]1CC[C@@H]1[C@@H]2CC[C@]2(C)[C@@H](O)CC[C@@H]12 Criterion not met

Another compound to look at: CCN(CC)C(=O)/C=C1\CC[C@H]2[C@@H]3CCC4N(C)C(=O)CC[C@]4(C)[C@H]3CC[C@]12C (some centres undefined) Criterion not met

What do you get for CN1C(=O)CC[C@H]2C1=CC[C@@H]1[C@@H]2CC[C@@]2(C)[C@H]1CC[C@@]21CCCO1 (stereo in doubt; 74) ? Criterion not met

Same again, this time with CCN(CC)C(=O)[C@H]1CC[C@H]2[C@@H]3CC[C@@H]4NC(=O)CC[C@]4(C)[C@H]3CC[C@]12C (stereo in doubt; 79) Criterion not met

###

IC50 values recorded for Androgen receptor (Rattus norvegicus)
Give the value in nM but do not write nM after it.

These solved cases illustrate the format of a correct answer.
Compound: C[C@]12CC[C@H]3[C@@H](CCC4=CC(=O)CC[C@@]43C)[C@@H]1CC[C@@H]2C(=O)O
IC50 (nM): 8900
//
Compound: CCN(CC)C(=O)[C@H]1CC[C@H]2[C@@H]3CC[C@H]4N(C)C(=O)CCC[C@]4(C)[C@H]3CC[C@]12C
IC50 (nM): 600
//
Compound: CC(O)[C@H]1CC[C@H]2[C@@H]3CCC4NC(=O)CC[C@]4(C)[C@H]3CC[C@]12C (stereo partly drawn)
IC50 (nM): 9300

Next compound, please.
Could you share which IC50 value was measured for CC(C)N(C(=O)[C@H]1CC[C@H]2[C@@H]3CCC4N(C)C(=O)C=C[C@]4(C)[C@H]3CC[C@]12C)C(C)C (stereo partly drawn) ? 10000
